For each entry below, report its Vd value.
assay: Apparent volume of distribution in Sprague-Dawley rat at 1 mg/kg, iv by LC/MS/MS analysis; type: ADME, organism-based; details: in vivo, read-out: Vz
The answer is to be given in L/kg; state only the numeric part.

Which measured Vd value corresponds to Cc1ccc(CN2CCOCC2)cc1NC(=O)c1ccc(Nc2nccc(-c3cccnc3)n2)cc1 ?
0.7

How about this compound: Cc1ccc(CN2CCOCC2)cc1NC(=O)c1ccc(Nc2ncc(C)c(-c3ccccn3)n2)cc1
0.888

How about this compound: Cc1ccc(OCCN2CCOCC2)cc1NC(=O)c1ccc(Nc2ncc(C)c(-c3ccccc3)n2)cc1
2.75

====

test: Clearance in Sprague-Dawley rat at 1 mg/kg, iv by LC/MS/MS analysis; type: ADME, organism-based; conditions: in vivo
readout name: clearance (mL/min/kg)
The answer is to be given in mL/min/kg; state only the numeric part.

Which measured clearance value corresponds to Cc1ccc(CN2CCOCC2)cc1NC(=O)c1ccc(Nc2nccc(-c3cccnc3)n2)cc1 ?
33.6

How about this compound: Cc1ccc(CN2CCOCC2)cc1NC(=O)c1ccc(Nc2ncc(C)c(-c3ccccn3)n2)cc1
12.3

How about this compound: Cc1ccc(OCCN2CCOCC2)cc1NC(=O)c1ccc(Nc2ncc(C)c(-c3ccccc3)n2)cc1
21.5
